Each item that follows carries a reported h, twist pitch.
test: Fibril dimensions measured from TEM images; assay type: physicochemical; conditions: physiological conditions, TEM
Where a SMILES comes first, the peptide text is derived from it.

Recorded h, twist pitch, per entry:
[
  {
    "compound": "CC(=O)N[C@@H](CC(N)=O)C(=O)N[C@@H](CC(N)=O)C(=O)N[C@@H](CCCNC(=N)N)C(=O)N[C@@H](Cc1ccccc1)C(=O)N[C@@H](CCC(=O)O)C(=O)N[C@@H](Cc1c[nH]c2ccccc12)C(=O)N[C@@H](CCC(=O)O)C(=O)N[C@@H](Cc1ccccc1)C(=O)N[C@@H](CCC(=O)O)C(=O)N[C@@H](CC(N)=O)C(=O)N[C@@H](CC(N)=O)C(N)=O [Peptide P11-15, CH3CO-N-N-R-F-E-W-E-F-E-N-N-NH2] (Ac-NNRFEWEFENN-NH2)",
    "h, twist pitch": "118-220 nm"
  },
  {
    "compound": "CC(=O)N[C@@H](CO)C(=O)N[C@@H](CO)C(=O)N[C@@H](CCCNC(=N)N)C(=O)N[C@@H](Cc1ccccc1)C(=O)N[C@@H](CCC(=O)O)C(=O)N[C@@H](Cc1c[nH]c2ccccc12)C(=O)N[C@@H](CCC(=O)O)C(=O)N[C@@H](Cc1ccccc1)C(=O)N[C@@H](CCC(=O)O)C(=O)N[C@@H](CO)C(=O)N[C@@H](CO)C(N)=O [Peptide P11-9, CH3CO-S-S-R-F-E-W-E-F-E-S-S-NH2] (Ac-SSRFEWEFESS-NH2)",
    "h, twist pitch": "118-236 nm"
  }
]

Alright, here's another compound for you.
Input: For the compound shown here, CC(=O)N[C@@H](CCC(N)=O)C(=O)N[C@@H](CCC(N)=O)C(=O)N[C@@H](CCCNC(=N)N)C(=O)N[C@@H](CCC(N)=O)C(=O)N[C@@H](CCC(=O)O)C(=O)N[C@@H](CCC(N)=O)C(=O)N[C@@H](CCC(=O)O)C(=O)N[C@@H](CCC(N)=O)C(=O)N[C@@H](CCC(=O)O)C(=O)N[C@@H](CCC(N)=O)C(=O)N[C@@H](CCC(N)=O)C(N)=O [Peptide P11-20, CH3CO-Q-Q-R-Q-E-Q-E-Q-E-Q-Q-NH2] (Ac-QQRQEQEQEQQ-NH2) , give the reported h, twist pitch.
Output: 202-363 nm

FYI, the data here is from patent US9630991B2.
